experimental.conditions: in sec-butanol, 303.15 K
endpoint.label: solubility (mole fraction)
When you answer, write just the number.

Would you mind telling me what solubility (mole fraction) value was observed for Cl.N=C(N=C(N)N)N1CCOCC1 ?
0.000445

====

experimental.conditions: in water, 293.15 K
endpoint.label: solubility (mole fraction)
When you answer, write just the number.

Would you mind telling me what solubility (mole fraction) value was observed for Cl.N=C(N=C(N)N)N1CCOCC1 ?
0.0653

====

experimental.conditions: in water, 313.15 K
endpoint.label: solubility (mole fraction)
When you answer, write just the number.

Would you mind telling me what solubility (mole fraction) value was observed for Cl.N=C(N=C(N)N)N1CCOCC1 ?
0.105
